Biological target: MOR (Homo sapiens, UniProt P35372)
Sequence (P35372 whole entry): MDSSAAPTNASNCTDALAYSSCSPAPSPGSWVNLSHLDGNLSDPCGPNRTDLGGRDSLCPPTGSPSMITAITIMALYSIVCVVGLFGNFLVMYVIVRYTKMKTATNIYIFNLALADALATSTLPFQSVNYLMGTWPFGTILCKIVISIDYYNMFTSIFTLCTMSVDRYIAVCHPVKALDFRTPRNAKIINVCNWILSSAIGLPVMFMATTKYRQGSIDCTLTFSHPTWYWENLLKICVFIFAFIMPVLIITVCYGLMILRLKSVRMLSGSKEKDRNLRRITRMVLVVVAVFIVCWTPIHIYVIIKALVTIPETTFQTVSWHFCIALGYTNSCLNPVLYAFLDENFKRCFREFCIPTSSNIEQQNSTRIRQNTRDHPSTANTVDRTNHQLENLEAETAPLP
Sequence (P32121 whole entry partner): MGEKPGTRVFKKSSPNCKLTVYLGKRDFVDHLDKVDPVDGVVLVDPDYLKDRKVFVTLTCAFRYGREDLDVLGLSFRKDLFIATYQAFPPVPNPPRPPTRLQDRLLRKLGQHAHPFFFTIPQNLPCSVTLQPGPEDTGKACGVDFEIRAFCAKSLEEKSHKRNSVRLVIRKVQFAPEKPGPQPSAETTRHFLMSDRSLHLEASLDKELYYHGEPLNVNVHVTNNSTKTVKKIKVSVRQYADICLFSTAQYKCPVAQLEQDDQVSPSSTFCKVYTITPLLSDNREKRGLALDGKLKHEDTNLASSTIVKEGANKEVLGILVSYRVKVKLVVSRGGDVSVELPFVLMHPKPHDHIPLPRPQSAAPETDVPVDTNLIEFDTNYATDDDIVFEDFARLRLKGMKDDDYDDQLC
Assay: cell-based
Set-up: host or cells: CHO-K1 OPRM1 β-arrestin-2 cells
As shown below, each of these compounds has a reported Bias Factor value.
Output spec: single numeric token, no unit.

Could you please provide reported Bias Factor for C[C@@H](NC(=O)[C@@H](N)Cc1ccc(O)cc1)C(=O)NCC(=O)N(C)[C@@H](Cc1ccccc1)C(=O)NCCO [DAMGO, reference compound] ? Thanks!
1.0

Could you please provide reported Bias Factor for COC(=O)[C@@H]1C=C(OC(=O)c2cccc(CO)c2)C(=O)[C@H]2[C@@]1(C)CC[C@H]1C(=O)O[C@H](c3ccoc3)C[C@]21C [Entry 4] ? Thanks!
0.87

Could you please provide reported Bias Factor for COC(=O)[C@@H]1C=C(OC(=O)c2ccc3occc3c2)C(=O)[C@H]2[C@@]1(C)CC[C@H]1C(=O)O[C@H](c3ccoc3)C[C@]21C [Entry 2] ? Thanks!
1.21
